Tested on: MS2 coat protein
assay text: apparent KD of MS2 coat protein; designed switch direction (-1 OFF switch, 1 ON switch): -1; higher = weaker reporter binding
recorded conditions: Eterna round: R95; input ligand: none
Below is a list of entries, each paired with its recorded apparent KD of MS2 coat protein value.
measured parameter: apparent KD of MS2 coat protein (nM)

| construct sequence | value |
| --- | --- |
| AAAAAGGUAGGAUAUACGAAAAAAAAGGGUAGAAAAAAAACACAUGAGGAUCACCCAUGUAGAAGGACCAAAAA [salish99_ex2_r3_043] (puzzle: Exclusion 2) | 26.1 |
| GAUUAUGCGAGCUUUAGGGACAUGAGGAUCACCCAUGUUCGUCUUGUUGAUCUAGGUGCGCUAACAUACCUAAAUCU [JMF 48] (puzzle: Sensor v3, turn-off variant 1) | 23.4 |
| AGUACUAACACGAAAGUGUUAGUGCAAUAAGCUUGUGAAACAUGAGGAUCACCCAUGUCCUCAUAAGCUCGUCUUAU [salish99_TOv2_r3_039] (puzzle: Sensor v3, turn-off variant 2) | 16.2 |
| UUACGGUAGAUCGUGGCUUUUUGCUCGUCUUGUGCUACAACAUGAGGAUCACCCAUGUAGAGGUGAUCUAUUGUAUU [Grok-var2-20 mod JAL] (puzzle: Sensor v3, turn-off variant 2) | 74.5 |
| GUACAGGUAGGAUAUCGAUACAAGAACAUGAGGAUCACCCAUGUGGGUCGAUUUUCGAAGCGAGAAGGACCAAAUG [Rixeatenso] (puzzle: Exclusion 5) | 145 |
| ACUCGUAACUAGGAUAUCCGAAAUAAACGAGGAGGAGAAGGAGUUACAUGAGGAUCACCCAUGUGAUAUAAAGA [Edtisoed] (puzzle: Exclusion 6) | 17.6 |
| AAAAUGUAAGGAUAUAGCCGGAACAAAGGGUCAAUAACCGGCUAGAAGGUACAUGAGGAUCACCCAUGUAAGAA [Excls4-V] (puzzle: Exclusion 4) | 15.8 |
| GGUCAAGAACAGAUCCGCGCUGCCAUUGACCGCUCAUUUACAUGAGGAUCACCCAUGUUUUUUGCUCGUCUUACUAC [Edesso] (puzzle: Sensor v3, turn-off variant 2) | 19.3 |
| AAAAGUUAAGGAUAUACAGGGAGCCGCGGCGUCUGGCCGCAACAUGAGGAUCACCCAUGUAGAAGGUAGCCAAA [Maatmaso] (puzzle: Exclusion 2) | 30.5 |
| AGAUGUAGAUACCGGUCCUACAUGAGGAUCACCCAUGUAGCUAGACGUGCGGGCGGCGCUCGUCGGACUACCAGUAG [salish99_TOv1_r3_098] (puzzle: Sensor v3, turn-off variant 1) | 59.7 |
| AAAGAACUAGGAUAUCGCGCUACAGACAUGAGGAUCACCCAUGUAAUCGCAUGUCAAGUUUGAGAAGGAGUGAAGA [Usissodi] (puzzle: Exclusion 5) | 9.9 |

Source of measurements: the supplement of paper PMC9170038
